# ASSAY TARGET: T1, cynomolgus monkey BDCA2 (full-length, cell surface, E73 SNP form) (cynomolgus monkey, UniProt Q8WTT0 1-213 (human entry))
# T1 construct: also called cyno BDCA2; surface cynomolgus monkey BDCA2
# T1 chain: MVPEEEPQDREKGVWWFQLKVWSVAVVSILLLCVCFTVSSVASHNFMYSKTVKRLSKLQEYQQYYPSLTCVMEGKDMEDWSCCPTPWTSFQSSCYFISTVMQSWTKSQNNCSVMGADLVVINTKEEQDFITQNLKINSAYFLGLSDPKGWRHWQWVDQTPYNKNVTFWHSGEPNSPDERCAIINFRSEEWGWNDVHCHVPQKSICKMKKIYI
# EXPERIMENT SUMMARY: direct binding FACS, conditioned medium on CHO cells co-expressing BDCA2 and FcεRIγ
PROPERTY MEASURED: binding result

BINDER: hu24F4 H1/L0 (antibody, V domains shown, Humanized variant, human IgG1/kappa, conditioned medium of 293E cells; also called H1 series of hu24F4) VH: EVQLVESGGGLVKPGGSLRLSCAASGFTFSTYTMSWVRQAPGKGLEWVSTISPGDSFGYYPDSVKGRFTISRDNAKNSLYLQMNSLRAEDTAVYYCARDIYYNYGAWFAYWGQGTLVTVSS VL: AIQLTQSPSSLSASVGDRVTITCKASQSVDYDGDSYMNWYQQKPGKAPKLLIYAASTLESGVPSRFSGSGSGTDFTLTISSLQPEDFATYYCQQSNEDPRTFGQGTKVEIK
READING: no binding
//
BINDER: hu24F4 H2/L0 (antibody, V domains shown, Humanized variant, human IgG1/kappa, conditioned medium of 293E cells; also called H2 series of hu24F4) VH: EVQLVESGGGLVKPGGSLRLSCAASGFTFSTYTMSWVRQAPGKGLEWVSTISPGDSSTIYYADSVKGRFTISRDNAKNSLYLQMNSLRAEDTAVYYCARDIYYNYGAWFAYWGQGTLVTVSS VL: AIQLTQSPSSLSASVGDRVTITCKASQSVDYDGDSYMNWYQQKPGKAPKLLIYAASTLESGVPSRFSGSGSGTDFTLTISSLQPEDFATYYCQQSNEDPRTFGQGTKVEIK
READING: no binding
